# Procedure Details: Human HepG2 cell viability assay in 384 well format
# Assay type: toxicity, cell-based
# Set-up: dose 125 nL, time 70.5 hour; concentration not given beside the values
# Particulars: HepG2 cells, read-out: Inhibition
Endpoint Label: cytotoxicity at 70.5 h (%)
The reply should be a number in %, with the unit left off.

Sample answers from the record:
Given CSC1(CNC(=O)N(C)Cc2sccc2C)CCOCC1 , state its recorded cytotoxicity at 70.5 h. 29.3

Given Cc1noc(C(C)C)c1C(=O)NCCCN1CCC(C)CC1 , state its recorded cytotoxicity at 70.5 h. -13

Given COC(=O)c1ccc(N2CCN(CCS(C)(=O)=O)C(C)C2)cc1 (stereo unspecified) , state its recorded cytotoxicity at 70.5 h. -3.48

Given CCNc1cc2c(nn1)CCN(C(=O)c1ccnc(-n3ccnc3)c1)C2 , state its recorded cytotoxicity at 70.5 h. -6.16

Given CC(=O)NC1CCCN(C(=O)CNc2cccc(C)c2Cl)C1 (stereo unspecified) , state its recorded cytotoxicity at 70.5 h. 21.2

Continuing:
Given COCC1CC2(CCN(S(=O)(=O)C3CC3)CC2)CN1c1ncccn1 (stereo unspecified) , state its recorded cytotoxicity at 70.5 h. 14.2

Given Cc1nn(C)c(C)c1CN(C)S(=O)(=O)c1c(C)n[nH]c1C , state its recorded cytotoxicity at 70.5 h. -5.08

Given CC(=O)c1cccc(NC(=O)Cn2cnc(-c3cccs3)cc2=O)c1 , state its recorded cytotoxicity at 70.5 h. -1.2

Given COc1ncccc1C(=O)N1C[C@@H]2COC[C@]2(CN(C)C)C1 , state its recorded cytotoxicity at 70.5 h. -1.76

Given O=C(NCCN1CCOCC1)c1cc(Cl)c2c(c1)OCCCO2 , state its recorded cytotoxicity at 70.5 h. -5.1

Given CCOC1CCN(C(=O)c2c(Cl)c3ccccc3n2C)CC1 , state its recorded cytotoxicity at 70.5 h. -7.26

Given Cc1cc(=O)[nH]c(NCCNC(=O)c2ccccc2N2CCCC2)n1 , state its recorded cytotoxicity at 70.5 h. 32.3

Given Cc1cnn(CC2CCCN2Cc2noc(CC(C)C)n2)c1 (stereo unspecified) , state its recorded cytotoxicity at 70.5 h. -0.847

Given Cn1ncc2c(N[C@@H]3C[C@@H]4CC[C@H]3C4)nc(-c3ccncc3)nc21 , state its recorded cytotoxicity at 70.5 h. -2.05

Given COc1cccc(COCC(=O)N2CCCC(n3ccnc3C)C2)c1 (stereo unspecified) , state its recorded cytotoxicity at 70.5 h. -15.7

Given N#CCCN(Cc1cccnc1)C(=O)c1cc(Cl)c[nH]1 , state its recorded cytotoxicity at 70.5 h. -7.86

Given COc1ccc(-c2n[nH]c(C)c2CC(=O)NCCN2CCOCC2)cc1 , state its recorded cytotoxicity at 70.5 h. -2.78

Given NC(=O)N1CCCC(C(=O)N2CCN(c3nsc4ccccc34)CC2)C1 (stereo unspecified) , state its recorded cytotoxicity at 70.5 h. -3.95

Given COC(=O)c1ccc(N2CCN(CCC(=O)NC(N)=O)C(C)C2)cc1 (stereo unspecified) , state its recorded cytotoxicity at 70.5 h. -6.28

Given CN(C)C(=O)CN1CCO[C@H]2CN(Cc3cccc(F)c3)C[C@H]21 , state its recorded cytotoxicity at 70.5 h. -8.07

Given COC1CCN(S(=O)(=O)N2CCC3(CCCNC3=O)C2)CC1 (stereo unspecified) , state its recorded cytotoxicity at 70.5 h. -0.998
